# test_protocol: NCI Yeast Anticancer Drug Screen. Data for the wt1 strain (AID 149);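 note: 0% = growth of vehicle-treated wt1 cultures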
# measurement_conditions: S. cerevisiae wt1 strain (SPY 50644) growth inhibition; at 11.0 µM
This is part of a sample that, as a whole, favours compounds with a hit. Of some 79,000 tested, about 15% had one in any assay. Activity calls are given as the source filed them. Cut-off read from the data, not from the text of the source: active = growth inhibition above about 70%; inactive = the rest.
Result category, one only: 1 (yes) for active, 0 (no) for inactive

// below: answered compounds
>>> category_label("Cc1c2cc[n+](CCO)cc2c(C)c2c1[nH]c1ccc(O)cc12")
"0 (no)"
>>> category_label("Cc1cc(OCc2nc(N)nc(N)c2-c2ccc(Cl)c(Cl)c2)ccc1[N+](=O)[O-]")
"0 (no)"
>>> category_label("O=C1NC(c2cccc(OCc3ccccc3)c2)Nc2ccccc21 (stereo not drawn)")
"0 (no)"
>>> category_label("CC(C)C(=O)CC(Sc1ccc(N)cc1)c1ccccc1 (stereo not drawn)")
"0 (no)"
>>> category_label("COc1ccc2nc(CCc3ccccc3)ccc2c1")
"0 (no)"

Ask: Field: outcome | Entry: NC(=S)N1N=C2c3ccccc3CC[C@H]2[C@@H]1c1ccc(Cl)cc1
Result: 0 (no)

Ask: For O=C(NOC(=O)c1ccc([N+](=O)[O-])cc1)c1ccc(Cl)cc1 , what call appears in the results of this test?
Result: 0 (no)

Ask: GET /call?item= CC(=O)NC(c1nc2cc(C)c(C)cc2[nH]1)c1nc2cc(C)c(C)cc2[nH]1 returns the recorded outcome of this test.
Result: 0 (no)

Ask: Assay outcome for c1ccc2c(c1)N=C1CCCC3CCCC123 (stereo not drawn) : what was it?
Result: 0 (no)

Ask: Which outcome did this test record for the compound c1ccc([P+](CCN2Cc3ccccc3C2)(c2ccccc2)c2ccccc2)cc1 ?
Result: 0 (no)

Ask: Short answer needed: outcome of this test for OC1(c2ccccc2)C2CC=CC2C1(c1ccccc1)c1ccccc1 (stereo not drawn) ?
Result: 0 (no)

Ask: Assay result, entry O=C(Cc1ccccc1)NN1C(=O)C(Cl)C1c1cc(Br)cc(Br)c1O (stereo not drawn) — outcome?
Result: 1 (yes)

Ask: Answer briefly: the call reported for CCOC(=O)/C(=C\c1cccc(C)c1)C(C)=O in this assay.
Result: 0 (no)

Ask: Test call for this compound, please: O=C(O)/C=C\C(=O)Nc1ccc2c(c1)Cc1cc(Cl)ccc1-2
Result: 0 (no)

Ask: Call for entry CC(=O)/C(=C\c1ccc(Cl)c(Cl)c1)C(=O)C(C)CN(C)C (stereo not drawn) :
Result: 0 (no)

----------
# test_protocol: NCI Yeast Anticancer Drug Screen. Data for the bub3 strain (AID 167)
# measurement_conditions: S. cerevisiae bub3 mutant strain, at 1.2 µM
This is part of a sample that, as a whole, favours compounds with a hit. Of some 79,000 tested, about 15% had one in any assay. The source made the active and inactive calls. Cut-off read from the data, not from the text of the source: active = growth inhibition above about 70%; inactive = the rest.
Pick one and only one: label 1 = active, label 0 = inactive

>>> category_label("CC(C(=O)N1C(=O)N(C(=O)C(C)C(O)c2ccccc2)C2CCCCC21)C(O)c1ccccc1 (stereo unspecified)")
"label 0"
>>> category_label("NC(=S)N/N=C1\\c2ccccc2CCC1CCC1(O)CCc2ccccc2C1=O (stereo unspecified)")
"label 0"
>>> category_label("COc1ccc2nc3cccc([N+](=O)[O-])c3c(NCCCCCC(=O)O)c2c1")
"label 0"
>>> category_label("CCN(CC)C(=S)N/N=C(\\C)c1ccccc1O")
"label 0"

Ask: Recorded test outcome, item c1ccc2c(c1)N=C1CCCC3CCCC123 (stereo unspecified)
Result: label 0

Ask: Field: outcome | Entry: S=C(NCc1ccccn1)N/N=C/c1ccccn1
Result: label 1

Ask: Hi team, can someone confirm the assay call for COc1ccc(C2CC(C)(N3CCCC3)Oc3cc4c(cc32)OCO4)cc1 (stereo unspecified) ?
Result: label 0

Ask: Test call for this molecule, please: O=C1Nc2ccc(Br)cc2C1=Nc1ccc(Cl)cc1
Result: label 0

Ask: Returns: the outcome recorded for COc1cc([C@@H]2c3cc4c(cc3[C@@H](NC(=O)NO)[C@H]3COC(=O)[C@H]23)OCO4)cc(OC)c1O in this assay.
Result: label 0

Ask: Could you kindly confirm the outcome this assay logged for O=C(/N=N/C(=O)Oc1ccccc1)Oc1ccccc1 ?
Result: label 0

Ask: I'd appreciate the recorded outcome for O=C(O)c1c2ccc(Cl)cc2nc2[nH]c(=O)[nH]c(=O)c12 from this test.
Result: label 0

----------
# test_protocol: NCI Yeast Anticancer Drug Screen. Data for the rad50 strain (AID 155);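 note: 0% = growth of vehicle-only cultures of the same strain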
# measurement_conditions: S. cerevisiae rad50 strain growth inhibition; at 1.2 µM; stronger effect = higher value
Compounds without any hit were thinned out: in the full panel of roughly 79,000, 15% have a hit.
# key: entry, value: growth inhibition
Unit % implied. Number only.

>>> recorded_result("COc1cc2c(cc1O)[C@H](C)C(c1ccccc1OC)O2 (stereo partly specified)")
-4
>>> recorded_result("CC1=CC(C)(C)SC(SSSC2=NC(C)=CC(C)(C)S2)=N1")
-17
>>> recorded_result("CC1=CN2C(c3ccccc3)=NON(c3ccc(C)cn3)C2C=C1 (stereo unspecified)")
6
>>> recorded_result("Cc1ccccc1NC(=O)c1c(C)oc2c1C(=O)c1ccccc1C2=O")
-13
>>> recorded_result("CCOC(=S)SSSC(=S)OCC")
7

Ask: Using known records, supply growth inhibition for CN(C)CCNCCCNc1c2ccccc2nc2cccc([N+](=O)[O-])c12
Result: 9

----------
# test_protocol: NCI Yeast Anticancer Drug Screen. Data for the bub3 strain (AID 167)
# measurement_conditions: S. cerevisiae bub3 mutant strain, at 50.0 µM
Compounds without any hit were thinned out: in the full panel of roughly 79,000, 15% have a hit. Active and inactive are the calls of the source. Rule as the data show it: active = growth inhibition above about 70%; inactive = the rest.
Tick one outcome: class 1 for active, class 0 for inactive

>>> category_label("N#CSCC1COc2ccccc2O1 (configuration not stated)")
"class 1"
>>> category_label("c1ccc(-c2cc(C3CO3)c3ccccc3n2)cc1 (configuration not stated)")
"class 1"
>>> category_label("CNC(=O)OCc1c2ccncc2c(C)c2c1[nH]c1ccccc12")
"class 0"
>>> category_label("CC1(C)CC(=O)C(C(=O)Nc2cccs2)=C(O)C1")
"class 1"
>>> category_label("COC(=O)C(Cc1c[nH]c2ccccc12)N1CN(C)c2ccccc2C1=O (configuration not stated)")
"class 0"

Ask: Can you look up the reported call for Cc1c(Cl)c(C)c(Cl)c(O)c1Cl for me?
Result: class 1

Ask: Outcome? Cc1cc(OCc2nc(N)nc(N)c2-c2ccc(Cl)c(Cl)c2)ccc1[N+](=O)[O-]
Result: class 1

----------
# test_protocol: NCI Yeast Anticancer Drug Screen. Data for the sgs1 mgt1 strain (AID 161);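 note: 0% = growth of cultures given vehicle only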
# measurement_conditions: S. cerevisiae sgs1 mgt1 strain, at 50.0 µM (retest, dose inferred, filed as 5.0), stronger effect = higher value
About 79,000 compounds went through this panel and 15% of them were active in at least one assay; those are over-represented in the sample as a whole. Residues, ends and D or L forms follow the SMILES beside them. *: point of attachment. Fmoc = O=C(OCC1c2ccccc2-c2ccccc21)*; Boc = CC(C)(C)OC(=O)*
experimental_endpoint: growth inhibition (%)
Respond with the bare value in %.

>>> recorded_result("COc1cc2c(cc1OC)[C@@H](Nc1ccc(C#N)cc1)C1COC(=O)[C@@H]1C2c1cc(OC)c(O)c(OC)c1 (stereo not given in full)")
96
>>> recorded_result("CCCN=Cc1cc(Cc2ccc(O)c(C=NCCC)c2)ccc1O")
-85
>>> recorded_result("O=C(/C(=C/c1ccc(O)cc1)c1ccccc1)c1ccccc1")
97
>>> recorded_result("O=C(Nn1c(-c2ccccc2)nc2ccccc2c1=O)c1ccc(CS)cc1")
27
>>> recorded_result("O=C(NO)c1coc2ccccc2c1=O")
13
>>> recorded_result("c1ccc(-c2cc(C3CO3)c3ccccc3n2)cc1 (stereo not given)")
80
>>> recorded_result("O=[N+]([O-])c1ccc2[nH]c3c(-c4ccccc4)nccc3c2c1")
98
>>> recorded_result("COc1ccc(-c2cc(-c3cc(C)cc(Cl)c3O)nc3[nH]c(=S)[nH]c(=S)c23)cc1")
68

Ask: Give the measured growth inhibition for Cc1cccc2c(NCCCN(C)C)c3c([N+](=O)[O-])ccc(C)c3nc12
Result: 46

Ask: Return reported growth inhibition. Input molecule: CCOC(=S)SSSC(=S)OCC
Result: 99

Ask: Specify reported growth inhibition for the molecule shown: C[C@H](CCC1=NC(C)(C)CO1)C1CCC2[C@@H]3C(O)C[C@@H]4CC(O)CC[C@]4(C)C3CC[C@@]21C (stereo not given in full)
Result: 98

Ask: Quote growth inhibition reported for O=C(O)c1ccccc1C(=O)OC1CCc2ccccc2C1 (stereo not given) please.
Result: 45

Ask: Tell me measured growth inhibition for CC(C)(C)OC(=O)NCCCCC(NC(=O)C(Cc1c[nH]c2ccccc12)NC(=O)OCC1c2ccccc2-c2ccccc21)C(=O)O (stereo not given) (Fmoc-Trp-Lys(Boc)-OH; configuration not given here) please.
Result: 21

Ask: Answer with the recorded growth inhibition of O=C(C(Cl)=C(N1CCCCC1)N1CCCCC1)C(Cl)Cl only.
Result: 99
